Target: CDK1/Cyclin B1 (Homo sapiens, UniProt P06493)
Sequence (P06493 whole entry): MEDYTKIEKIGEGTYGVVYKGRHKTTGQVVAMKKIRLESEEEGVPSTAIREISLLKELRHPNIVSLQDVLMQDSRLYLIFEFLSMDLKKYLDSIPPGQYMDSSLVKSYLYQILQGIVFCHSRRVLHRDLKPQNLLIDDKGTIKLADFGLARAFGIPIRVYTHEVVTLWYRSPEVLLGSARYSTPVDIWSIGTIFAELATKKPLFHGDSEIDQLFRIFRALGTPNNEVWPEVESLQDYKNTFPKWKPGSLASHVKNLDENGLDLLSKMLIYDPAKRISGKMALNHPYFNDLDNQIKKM
Sequence (P14635 whole entry partner): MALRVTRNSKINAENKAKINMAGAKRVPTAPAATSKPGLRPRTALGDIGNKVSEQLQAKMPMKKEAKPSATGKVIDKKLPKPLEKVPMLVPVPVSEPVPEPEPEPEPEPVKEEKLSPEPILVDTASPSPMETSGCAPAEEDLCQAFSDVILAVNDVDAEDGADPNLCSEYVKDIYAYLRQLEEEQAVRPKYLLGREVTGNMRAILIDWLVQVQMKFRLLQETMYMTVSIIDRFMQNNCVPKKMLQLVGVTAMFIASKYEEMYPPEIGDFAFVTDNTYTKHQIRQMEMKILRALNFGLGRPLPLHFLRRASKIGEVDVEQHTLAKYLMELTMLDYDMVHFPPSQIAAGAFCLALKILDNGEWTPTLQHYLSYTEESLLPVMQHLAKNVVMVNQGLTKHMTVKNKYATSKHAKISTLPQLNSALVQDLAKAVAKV
Test: CDK1/Cyclin B1 Biochemical Assay (TR-FRET), 0.015 mM ATP
Conditions: 0.15 μM Rb (Ser780)-biotin substrate, pH7.0, 60 min preincubation, 120 min reaction, room temperature
Provide the recorded pIC50 for the entries that follow.
Friendly reminder that pIC50 comes from taking -log10 of the concentration in mol/L.

pIC50 for CC(C)NC(=O)O[C@H]1CC[C@@H](c2cc(Nc3ccc4c(c3F)CS(=O)(=O)N4C3COC3)n[nH]2)C1 (single isomer, unassigned) [Example 259b] ?
6.80

Suppose we examine the compound COc1cc2c(cc1Nc1cc([C@@H]3CC[C@H](OC(=O)NC(C)C)C3)[nH]n1)CNS2(=O)=O (relative stereo) [Example 15] ; what pIC50 value has been reported?
5.97

For the compound shown here, CC(C)NC(=O)O[C@H]1CC[C@@H](c2cc(Nc3ccc4c(c3)CNS4(=O)=O)n[nH]2)C1 (relative stereo) [Example 2] , give the reported pIC50.
7.44

May I ask what pIC50 has been recorded for [2H]C([2H])([2H])N1c2ccc(Nc3cc([C@@H]4CC[C@H](OC(=O)N[C@@H](C)CC)C4)[nH]n3)c(F)c2CS1(=O)=O (relative stereo) [Example 269] ?
7.21

Could you tell me which pIC50 is on file for CC[C@H](C)NC(=O)O[C@H]1CC[C@@H](c2cc(Nc3ccc4c(c3F)CN(C3COC3)S4(=O)=O)n[nH]2)C1 (single isomer, unassigned) [Example 134a] ?
6.31

Param item = C[C@@H](CO)NC(=O)O[C@H]1CC[C@@H](c2cc(Nc3ccc4c(c3F)CN(C3CC3)S4(=O)=O)n[nH]2)C1 (relative stereo) [Example 120] ; retrieve measured pIC50.
6.11

Entry under review: CC1(NC(=O)O[C@H]2CC[C@@H](c3cc(Nc4ccc5c(c4F)CNS5(=O)=O)n[nH]3)C2)CCOC1 (single isomer, unassigned) [Example 162a] . Reported pIC50?
6.34

What value of pIC50 has been reported for the following compound? CC(C)NC(=O)O[C@H]1CC[C@@H](c2cc(Nc3ccc4c(c3F)C(C)NS4(=O)=O)n[nH]2)C1 (single isomer, unassigned) [Example 51d]
6.35

For the compound CC(C)NC(=O)O[C@H]1CC[C@@H](c2cc(Nc3ccc4c(c3F)CN(C3CCC3O)S4(=O)=O)n[nH]2)C1 (single isomer, unassigned) [Example 102] , what pIC50 is on record?
6.39

Fill in the blank: the reported pIC50 of CC(C)(C)NC(=O)O[C@H]1CC[C@@H](c2cc(Nc3cc4c(cc3F)S(=O)(=O)NC4)n[nH]2)C1 (single isomer, unassigned) [Example 395b] is ____.
6.94

Please give the measured pIC50 for this compound: CC(C)NC(=O)O[C@H]1CC[C@@H](c2cc(Nc3ccc4c(c3F)CN(C3CC(O)C3)S4(=O)=O)n[nH]2)C1 (relative stereo) [Example 84]
6.41

Recorded pIC50 of O=C(NC1CCC1)O[C@H]1CC[C@@H](c2cc(Nc3ccc4c(c3)CS(=O)(=O)N4)n[nH]2)C1 (single isomer, unassigned) [Example 380b] , please.
7.64

====

Target: CDK1/Cyclin B1 (Homo sapiens, UniProt P06493)
Experiment: CDK1/Cyclin B1 Biochemical Assay (TR-FRET), 0.015 mM ATP
Conditions: 0.15 μM Rb (Ser780)-biotin substrate, pH7.0, 60 min preincubation, 120 min reaction, room temperature
pIC50: −log10 of the molar value.
Binary classification by pIC50, with 7 as an inclusive lower bound for Met; all other cases are Not met.

Kindly determine if pIC50 recorded for CC1(NC(=O)O[C@H]2CC[C@@H](c3cc(Nc4ccc5c(c4F)CNS5(=O)=O)n[nH]3)C2)CCC1 (relative stereo) is above or exactly 7.
Met

Can C[C@@H](CO)NC(=O)O[C@H]1CC[C@@H](c2cc(Nc3ccc4c(c3F)CS(=O)(=O)N4C)n[nH]2)C1 (relative stereo) be said to have pIC50 at or above 7?
Not met

Determine whether measured pIC50 meets or exceeds 7 for CC(C)NC(=O)O[C@H]1CC[C@@H](c2cc(Nc3ccc4c(c3)CS(=O)(=O)N4CC(C)(C)O)n[nH]2)C1 (relative stereo)
Met

All values here come from patent US20260297080A1.
